Listed below: TGI values for each entry.
- Tested on: NCI-H23 lung
- assay notes: NCI tumour cell line growth inhibition, 48 h

INSERT INTO results (molecule, recorded_measurement) VALUES
  ('Oc1ccc2ccccc2c1N=Nc1ccccn1', '> 100 µM');

Fill blank: measured TGI of the molecule `COc1ccc(N=C2C(=Nc3ccc(OC)cc3)N(S(=O)(=O)c3ccccc3)C(=S)N2c2ccc(OC)cc2)cc1` is ____.
> 100 µM

// same read-out, input: `NCC(=O)N1CCN(c2nc(N3CCCC3)c3nc(Cl)c(NCc4ccccc4)nc3n2)CC1`
3.63 µM

// same read-out, input: N#CC(N=Nc1ccccc1)c1nc2ccccc2o1 (configuration not stated)
43.9 µM

// same read-out, input: `COc1ccc(C[C@H]2COC(=O)[C@@H]2Cc2ccc(O)cc2)cc1OC`
> 100 µM

// same read-out, input: CCCC#CC(O)(C(=O)OC1CCN(C)CC1)C1CCCCC1 (configuration not stated)
> 100 µM

// same read-out, input: `O=C(CN1CCOCC1)CC(O)(C(F)(F)F)C(F)(F)F`
> 100 µM

// same read-out, input: `CC1=C2C(=O)C(C)(C)C=C2C(=O)[C@](C)(O)C12CC2`
> 1 µM

// same read-out, input: COc1ccc(-c2nc(N)c3ncn(C4OC(CO)C(O)C4O)c3n2)cc1 (configuration not stated)
> 100 µM

// same read-out, input: `CCc1n[nH]c(=O)n1NC(=O)c1ccccc1C(=O)O`
> 100 µM

// same read-out, input: `O=C1CCCCC[C@]12SC[C@H]1CON=C12`
> 100 µM

// same read-out, input: `O=C(O)CCSC(=O)Nc1cccc([N+](=O)[O-])c1`
> 100 µM

// same read-out, input: `C=C1SC(=Nc2ccccc2Cl)N(C(=O)c2sc3ccccc3c2Cl)C1(C)C`
> 100 µM

// same read-out, input: `Cn1c2ccccc2n2c(=O)c3cccnc3c(C#N)c12`
> 100 µM

// same read-out, input: `CC(=N/NC(=S)N1CCCCC1)/C(C)=N\NC(=S)N1CCCCC1`
4.82 µM

// same read-out, input: `CCOC(=O)/C=C(\N=P(c1ccccc1)(c1ccccc1)c1ccccc1)C(F)(F)C(F)(F)C(F)(F)C(F)(F)C(F)(F)F`
> 100 µM

// same read-out, input: `O=C(NCCCCNCCCNC(=O)c1cc(-c2ccccc2)nc2ccccc12)c1cc(-c2ccccc2)nc2ccccc12`
4.02 µM

// same read-out, input: NC1=NC(c2ccccc2)CC(c2cc(Cl)cc(Br)c2O)=N1 (configuration not stated)
26 µM

* * *

- System: SF-295 CNS
- assay notes: NCI tumour cell line growth inhibition, 48 h; in the data active = GI50 below about 0.43 µM; inactive = the rest
In this exercise, the only acceptable responses are yes = active, no = inactive

INSERT INTO assay_data (compound, assay_target, qualitative_label) VALUES
  ('COc1cc(/C=C2\CN(S(=O)(=O)c3ccc(C)cc3)C/C(=C\c3cc(CN4CCCCC4)c(O)c(OC)c3)C2=O)cc(CN2CCCCC2)c1O', 'SF-295 CNS', 'no'),
  ('O=C1/C(=C/c2ccccc2Br)COc2ccc(O)c(O)c21', 'SF-295 CNS', 'no');

Check the results log: what was the call for `Oc1cccc(Cn2c(-c3cccc(O)c3O)nc3ccccc32)c1O` ?
no

// same read-out, input: `C=C1SC(=Nc2ccccc2Cl)N(C(=O)c2sc3ccccc3c2Cl)C1(C)C`
no

// same read-out, input: `O=C1/C(=C/c2ccccc2)CN(CCC(=O)N2C/C(=C\c3ccccc3)C(=O)/C(=C/c3ccccc3)C2)C/C1=C\c1ccccc1`
no

// same read-out, input: `N/C(=N\c1nc2ccccc2s1)NC(=O)Nc1ccccc1Cl`
yes

// same read-out, input: CC1(C)CCC2(C(=O)O)CC[C@]3(C)C(=CCC4C5(C)CC[C@H](OC6OC(C(=O)O)C(O)C(OC7OC(CO)C(O)C(O)C7O)C6OC6OC(CO)C(O)C(O)C6O)C(C)(C)C5CCC43C)C2C1 (stereo partly drawn)
no

// same read-out, input: `COc1ccc(Cl)cc1NC(=O)c1c(NC(=O)C(F)(F)C(F)(F)F)sc2c1CCCCC2`
no
